Target: T1, natural Fel d1 (Indoor Biotech, #NA-FD1-2) (cat, UniProt P30438 23-92; P30440 18-109)
T1 construct: Bought natural heterodimeric glycoprotein, chains linked by disulfide bonds; also called nFel d1; nFel d 1
T1 sequence (P30438 other isoform, or with tags, fused parts or gaps, chain 1 of 2): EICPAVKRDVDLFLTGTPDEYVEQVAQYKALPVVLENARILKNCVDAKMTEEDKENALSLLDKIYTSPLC
T1 sequence (P30440 18-109, chain 2 of 2): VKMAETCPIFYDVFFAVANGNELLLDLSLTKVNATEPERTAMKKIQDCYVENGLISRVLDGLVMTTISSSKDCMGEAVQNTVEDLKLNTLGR
Experiment: Octet BLI sandwich; nFel d1 pre-complexed with captured mAb-1 H4H2636P (competitor); self-competition value subtracted
REPORTED_ENDPOINT: Response of mAb-2 Binding to nFel d1 pre-complexed with mAb-1 (nm)
One number for each entry, in nm.

Quick one: Response of mAb-2 Binding to nFel d1 pre-complexed with mAb-1 for H4H1616N (antibody, human IgG4, V domains shown, human IgG4 Fc (H4H prefix)) VH: EVELLESGGGLVQPGGSLRLSCAASGFTFSSYAMSWVRQAPGKGLEWVSSISGRVGSTHFADSVKGRFTFSRDNSKNTLYLQLSSLRAEDTAVYYCARSRGAAYFDYWGQGTLVTVSS VL: DIQMTQSPSSLSASVGDRVTITCQANQDISNFLNWYQQRPGKAPNLLIYAASNLETGVPSRFSGSGSGTDFTFTISSLQPEDIATYYCQHYDNFPFTFGPGTKVDIK ?
0.01
